Tested on: 966289-007-R4-J1-PDC complex spheroid viability
Test: Anticancer human tumor 966289-007-R4-J1-PDC patient-derived pancreatic adenocarcinoma cell line growth inhibition [RAS]; active = viability on the fitted dose curve at most 10% of control; inactive = the rest
Conditions: second compound 0.0949 µM; first compound 3.16 µM
Description: RAS pathway inhibitors in Combinations in Complex Spheroids A high-throughput screen of multi-cell type tumor spheroids was designed to identify active combinations of RAS pathway inhibitors and targeted small molecules. Complex spheroids include a stromal component modeled by human endothelial cells (HUVEC) and fibroblasts modeled by human mesenchymal stem cells (MSCs). […] Compounds. […] If the clinical Cmax for an agent had not been determined, the highest concentration tested was 10 microM. […]
Classes used: active, inactive

{"Molecule": "Cc1nc(N2CCC3(CC2)COC(C)C3N)c(CO)nc1Sc1ccnc(N)c1Cl (centres undefined) + CCn1c(-c2cc(N3CCN(C)CC3)cnc2C(C)OC)c2c3cc(ccc31)-c1csc(n1)CC(NC(=O)C1CC1C)C(=O)N1CCCC(N1)C(=O)OCC(C)(C)C2", "Label Class": "inactive"}
{"Molecule": "CC(Nc1ccc2c(c1)OCCn1cc(N3C(=O)OCC3C(F)F)nc1-2)C(N)=O (centres undefined) + CCn1c(-c2cc(N3CCN(C)CC3)cnc2C(C)OC)c2c3cc(ccc31)-c1csc(n1)CC(NC(=O)C1CC1C)C(=O)N1CCCC(N1)C(=O)OCC(C)(C)C2", "Label Class": "inactive"}
{"Molecule": "CC(Nc1ccc2c(c1)OCCn1cc(N3C(=O)OCC3C(F)F)nc1-2)C(N)=O (centres undefined) + CCn1c(-c2cccnc2C(C)OC)c2c3cc(ccc31)N1CCOC(CC(NC(=O)C(C(C)C)N(C)C(=O)C3(F)CCN(C(=O)C#CC(C)(C)N(C)C)CC3)C(=O)N3CCCC(N3)C(=O)OCC(C)(C)C2)C1", "Label Class": "inactive"}
{"Molecule": "CCC(CC)c1cc(NC2CCC(N)C2)n2nccc2n1 (centres undefined) + CCn1c(-c2cccnc2C(C)OC)c2c3cc(ccc31)N1CCOC(CC(NC(=O)C(C(C)C)N(C)C(=O)C3(F)CCN(C(=O)C#CC(C)(C)N(C)C)CC3)C(=O)N3CCCC(N3)C(=O)OCC(C)(C)C2)C1", "Label Class": "active"}

* * *

Test system: 966289-007-R4-J1-PDC complex spheroid viability
Experiment: Anticancer human tumor 966289-007-R4-J1-PDC cell line growth inhibition [RAS];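 note: spheroids exposed to agents for one week before readout; percent viability relative to DMSO vehicle control wells as 100%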
Details: second compound 0.003 µM; first compound 0.0316 µM; active compounds read low

{"Molecule": "C=CC(=O)Nc1cc(Nc2nccc(-c3cn(C)c4ccccc34)n2)c(OC)cc1N(C)CCN(C)C + CCn1c(-c2cc(N3CCN(C)CC3)cnc2C(C)OC)c2c3cc(ccc31)-c1csc(n1)CC(NC(=O)C1CC1C)C(=O)N1CCCC(N1)C(=O)OCC(C)(C)C2", "Readout Units": "%", "viability, T/C": 80.2}
{"Molecule": "CC(C)NCC(C(=O)N1CCN(c2ncnc3c2C(C)CC3O)CC1)c1ccc(Cl)cc1 (stereo not given) + CCn1c(-c2cccnc2C(C)OC)c2c3cc(ccc31)N1CCOC(CC(NC(=O)C(C(C)C)N(C)C(=O)C3(F)CCN(C(=O)C#CC(C)(C)N(C)C)CC3)C(=O)N3CCCC(N3)C(=O)OCC(C)(C)C2)C1", "Readout Units": "%", "viability, T/C": 99.2}
{"Molecule": "NC1c2ccccc2OC12CCN(c1cnc3c(N4CCCc5ncccc54)n[nH]c3n1)CC2 (stereo not given) + CCn1c(-c2cccnc2C(C)OC)c2c3cc(ccc31)N1CCOC(CC(NC(=O)C(C(C)C)N(C)C(=O)C3(F)CCN(C(=O)C#CC(C)(C)N(C)C)CC3)C(=O)N3CCCC(N3)C(=O)OCC(C)(C)C2)C1", "Readout Units": "%", "viability, T/C": 113}
{"Molecule": "CC1(O)CCCC1n1c(=O)c(C(F)F)cc2cnc(NC3CCN(S(C)(=O)=O)CC3)nc21 (stereo not given) + CCn1c(-c2cc(N3CCN(C)CC3)cnc2C(C)OC)c2c3cc(ccc31)-c1csc(n1)CC(NC(=O)C1CC1C)C(=O)N1CCCC(N1)C(=O)OCC(C)(C)C2", "Readout Units": "%", "viability, T/C": 125}
{"Molecule": "C=CC(=O)Nc1cc(Nc2nccc(-c3cn(C)c4ccccc34)n2)c(OC)cc1N(C)CCN(C)C + CCn1c(-c2cccnc2C(C)OC)c2c3cc(ccc31)N1CCOC(CC(NC(=O)C(C(C)C)N(C)C(=O)C3(F)CCN(C(=O)C#CC(C)(C)N(C)C)CC3)C(=O)N3CCCC(N3)C(=O)OCC(C)(C)C2)C1", "Readout Units": "%", "viability, T/C": 82.1}
{"Molecule": "CCN1CCN(Cc2ccc(Nc3ncc(F)c(-c4cc(F)c5nc(C)n(C(C)C)c5c4)n3)nc2)CC1 + CCn1c(-c2cc(N3CCN(C)CC3)cnc2C(C)OC)c2c3cc(ccc31)-c1csc(n1)CC(NC(=O)C1CC1C)C(=O)N1CCCC(N1)C(=O)OCC(C)(C)C2", "Readout Units": "%", "viability, T/C": 112}
{"Molecule": "Cc1nc(N2CCC3(CC2)COC(C)C3N)c(CO)nc1Sc1ccnc(N)c1Cl (stereo not given) + CCn1c(-c2cccnc2C(C)OC)c2c3cc(ccc31)N1CCOC(CC(NC(=O)C(C(C)C)N(C)C(=O)C3(F)CCN(C(=O)C#CC(C)(C)N(C)C)CC3)C(=O)N3CCCC(N3)C(=O)OCC(C)(C)C2)C1", "Readout Units": "%", "viability, T/C": 89.2}
{"Molecule": "Nc1ccn(C2OC(CO)C(O)C2(F)F)c(=O)n1 (stereo not given) + CCn1c(-c2cccnc2C(C)OC)c2c3cc(ccc31)N1CCOC(CC(NC(=O)C(C(C)C)N(C)C(=O)C3(F)CCN(C(=O)C#CC(C)(C)N(C)C)CC3)C(=O)N3CCCC(N3)C(=O)OCC(C)(C)C2)C1", "Readout Units": "%", "viability, T/C": 1.03}
{"Molecule": "C=CC(=O)N1CCN(c2nc(OCC3CCCN3C)nc3c(F)c(-c4nc(N)cc(C)c4C(F)(F)F)c(Cl)cc23)C(C)C1 (stereo not given) + CCn1c(-c2cc(N3CCN(C)CC3)cnc2C(C)OC)c2c3cc(ccc31)-c1csc(n1)CC(NC(=O)C1CC1C)C(=O)N1CCCC(N1)C(=O)OCC(C)(C)C2", "Readout Units": "%", "viability, T/C": 83.6}
{"Molecule": "CC(C)n1nc(-c2ccc3oc(N)nc3c2)c2c(N)ncnc21 + CCn1c(-c2cc(N3CCN(C)CC3)cnc2C(C)OC)c2c3cc(ccc31)-c1csc(n1)CC(NC(=O)C1CC1C)C(=O)N1CCCC(N1)C(=O)OCC(C)(C)C2", "Readout Units": "%", "viability, T/C": 50.6}
{"Molecule": "C=CC(=O)N1CCN(c2nc(OCC3CCCN3C)nc3c(F)c(-c4nc(N)cc(C)c4C(F)(F)F)c(Cl)cc23)C(C)C1 (stereo not given) + CCn1c(-c2cccnc2C(C)OC)c2c3cc(ccc31)N1CCOC(CC(NC(=O)C(C(C)C)N(C)C(=O)C3(F)CCN(C(=O)C#CC(C)(C)N(C)C)CC3)C(=O)N3CCCC(N3)C(=O)OCC(C)(C)C2)C1", "Readout Units": "%", "viability, T/C": 90}
{"Molecule": "CC1(O)CCCC1n1c(=O)c(C(F)F)cc2cnc(NC3CCN(S(C)(=O)=O)CC3)nc21 (stereo not given) + CCn1c(-c2cccnc2C(C)OC)c2c3cc(ccc31)N1CCOC(CC(NC(=O)C(C(C)C)N(C)C(=O)C3(F)CCN(C(=O)C#CC(C)(C)N(C)C)CC3)C(=O)N3CCCC(N3)C(=O)OCC(C)(C)C2)C1", "Readout Units": "%", "viability, T/C": 115}
{"Molecule": "O=C(c1ccc(F)c(F)c1Nc1ccc(I)cc1F)N1CC(O)([C@@H]2CCCCN2)C1 + CCn1c(-c2cc(N3CCN(C)CC3)cnc2C(C)OC)c2c3cc(ccc31)-c1csc(n1)CC(NC(=O)C1CC1C)C(=O)N1CCCC(N1)C(=O)OCC(C)(C)C2", "Readout Units": "%", "viability, T/C": 94.7}
{"Molecule": "Nc1ccn(C2OC(CO)C(O)C2(F)F)c(=O)n1 (stereo not given) + CCn1c(-c2cc(N3CCN(C)CC3)cnc2C(C)OC)c2c3cc(ccc31)-c1csc(n1)CC(NC(=O)C1CC1C)C(=O)N1CCCC(N1)C(=O)OCC(C)(C)C2", "Readout Units": "%", "viability, T/C": 1.26}
{"Molecule": "Cc1nc(N2CCC3(CC2)COC(C)C3N)c(CO)nc1Sc1ccnc(N)c1Cl (stereo not given) + CCn1c(-c2cc(N3CCN(C)CC3)cnc2C(C)OC)c2c3cc(ccc31)-c1csc(n1)CC(NC(=O)C1CC1C)C(=O)N1CCCC(N1)C(=O)OCC(C)(C)C2", "Readout Units": "%", "viability, T/C": 114}
